We begin with a simple list: items and their reported IC50.
- TARGET_OR_TEST_SYSTEM: BZω3 receptor (Rattus norvegicus, UniProt P16257)
Reply with just the number (in nM).

Before answering, review these 3 worked examples.
> print(dat)
                                 mol.smiles  experimental.endpoint  value.reported
1  CCn1c(=O)n(CC(=O)N(C)c2cccc(Cl)c2)c2nc(-c3ccccc3)ncc21                   IC50             1.1
2  CCN(Cc1ccccc1)C(=O)Cn1c(=O)[nH]c2cnc(-c3ccc(OC)cc3)nc21                   IC50             2.7
3  CN(C(=O)Cn1c(=O)[nH]c2cnc(-c3ccccc3)nc21)c1cccc(Cl)c1                   IC50             1.4

Which value of IC50 has been reported for CN(Cc1ccccc1)C(=O)Cn1c(=O)n(C)c2nc(-c3ccc(Cl)cc3)ncc21 in the records?
1.4

Similarly, CCN(Cc1ccc(F)cc1)C(=O)Cn1c(=O)n(C)c2nc(-c3ccccc3)ncc21 ?
0.99

Similarly, CN(C(=O)Cn1c(=O)n(C)c2cnc(-c3ccccc3)nc21)c1ccccc1 ?
0.67

Similarly, CCCN(CCC)C(=O)Cn1c(=O)n(C)c2cnc(-c3ccc(OC)cc3)nc21 ?
0.97

Similarly, CCN(C(=O)Cn1c(=O)n(C)c2nc(-c3ccccc3)ncc21)c1ccccc1 ?
2

Similarly, CN(C(=O)Cn1c(=O)n(C)c2nc(-c3ccccc3)ncc21)c1ccccc1 ?
1.2

Similarly, CN(C(=O)Cn1c(=O)n(C)c2nc(-c3cccnc3)ncc21)c1ccccc1 ?
2.8

Similarly, CCN(C(=O)Cn1c(=O)n(C)c2cnc(-c3ccccc3)nc21)c1ccccc1 ?
1.2

Similarly, CN(C(=O)Cn1c(=O)n(C)c2nc(-c3ccc(Cl)cc3)ncc21)c1ccccc1 ?
1.6

Similarly, CN(C(=O)Cn1c(=O)n(C)c2nc(-c3ccc(F)cc3)ncc21)c1ccccc1 ?
1.3

Similarly, CN(Cc1ccccc1)C(=O)Cn1c(=O)n(C)c2cnc(-c3ccc(Cl)cc3)nc21 ?
1.3

Similarly, CCn1c(=O)n(CC(=O)N(C)c2ccccc2)c2nc(-c3cccnc3)ncc21 ?
3.5

Similarly, CCCN(CCC)C(=O)Cn1c(=O)n(C)c2cnc(-c3ccc(Cl)cc3)nc21 ?
0.73

Similarly, CCCN(CCC)C(=O)Cn1c(=O)n(C)c2nc(-c3ccccc3)ncc21 ?
2.3

Similarly, COc1ccc(CN(C)C(=O)Cn2c(=O)n(C)c3nc(-c4ccccc4)ncc32)cc1 ?
1.7

---

We begin with a simple list: items and their reported melting point.

Before answering, review these 2 worked examples.
> print(dat)
                                   compound  value.reported
1  CN(C)C(=O)Cn1c(=O)n(C)c2nc(-c3ccccc3)ncc21 [Example 35]   204 to 206 °C
2  CCCN(CCC)C(=O)Cn1c(=O)n(C)c2cnc(-c3ccc(Cl)cc3)nc21 [Example 112]   135 to 137 °C

Which value of melting point has been reported for CN(Cc1ccccc1)C(=O)Cn1c(=O)n(C)c2cnc(-c3ccccc3)nc21 [Example 136] in the records?
169 to 170 °C

Similarly, CCN(CC)C(=O)Cn1c(=O)n(CC)c2nc(-c3ccccc3)ncc21 [Example 25] ?
148 to 150 °C

Similarly, CCCN(CCC)C(=O)Cn1c(=O)n(C)c2cnc(-c3ccc(OC)cc3)nc21 [Example 114] ?
157 to 158 °C

Similarly, CCCN(C(=O)Cn1c(=O)n(CC)c2nc(-c3ccccc3)ncc21)c1ccccc1 [Example 61] ?
168 to 170 °C

Similarly, CN(C(=O)Cn1c(=O)n(C)c2nc(-c3cccnc3)ncc21)c1ccccc1 [Example 37] ?
209 to 211 °C

Similarly, CCCN(C(=O)Cn1c(=O)n(CC)c2cnc(-c3ccccc3)nc21)c1ccccc1 [Example 170] ?
151 to 152 °C

Similarly, CCCCN(CCCC)C(=O)Cn1c(=O)n(CC)c2cnc(-c3ccccc3)nc21 [Example 135] ?
135 to 136 °C

Similarly, CCn1c(=O)n(CC(=O)N(C)c2ccccc2)c2cnc(-c3ccccc3)nc21 [Example 8] ?
160 to 161 °C
